Hi there, I'd appreciate the recorded Kd for every entry that follows.
- Assayed target: T1, CD96 extracellular region with His tag (CD96-His) (human, UniProt P40200 22-519)
- T1 construct: also called CD96-ECD-His; Bio-CD96-His (biotin-labelled form)
- T1 sequence: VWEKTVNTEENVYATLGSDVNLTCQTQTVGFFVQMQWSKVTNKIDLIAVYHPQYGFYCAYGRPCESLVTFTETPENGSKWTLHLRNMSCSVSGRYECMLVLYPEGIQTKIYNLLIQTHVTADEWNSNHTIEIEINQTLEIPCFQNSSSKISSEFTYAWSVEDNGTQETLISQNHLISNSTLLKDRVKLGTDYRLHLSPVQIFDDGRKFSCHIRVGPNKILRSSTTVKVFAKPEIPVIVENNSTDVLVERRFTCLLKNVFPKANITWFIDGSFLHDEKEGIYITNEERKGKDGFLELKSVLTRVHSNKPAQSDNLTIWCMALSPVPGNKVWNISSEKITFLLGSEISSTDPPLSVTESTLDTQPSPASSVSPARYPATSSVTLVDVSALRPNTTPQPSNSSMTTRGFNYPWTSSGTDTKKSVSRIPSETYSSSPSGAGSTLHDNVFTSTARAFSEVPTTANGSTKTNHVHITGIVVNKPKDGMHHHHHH
- Assay text: SPR (Biacore), antibody captured, CD96-ECD-His as mobile phase
Give bare numbers, in nM.

# return Kd for each item in the list
1. h1719-007 (antibody, V domains shown, Only variable regions are tied to this name) VH: EVTLKESGPVLVKPTETLTLTCTVSGFSLSSYGVSWVRQPPGKGLEWLGVIWGDGNTNYHSVLISRLTISKDTSKSQVVLTLTNMDPVDTATYYCAKQNYYGSRYGYPLDYWGQGTTVTVSS VL: DIQMTQSPSSVSASVGDRVTITCKATQDVGTAVAWYQQKPGKAPKLLIYWASTRHTGVPSRFSGSGSGTDFTLTISSLQPEDFATYYCQQYGSSVLTFGGGTKVEIK
2. h1718-013 (antibody, V domains shown, Only variable regions are tied to this name) VH: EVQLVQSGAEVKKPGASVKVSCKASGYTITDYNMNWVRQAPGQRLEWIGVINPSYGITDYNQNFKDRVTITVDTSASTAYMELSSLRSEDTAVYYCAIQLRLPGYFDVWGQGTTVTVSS VL: DIQMTQSPSSLSASVGDRVTITCKASQDINTYLNWFQQKPGKAPKTLIYRANRLVDGVPSRFSGSGSGQDYTLTISSLQPEDFATYYCLKYDEFPYTFGGGTKVEIK
3. h1722-012 (antibody, V domains shown, Only variable regions are tied to this name) VH: EVQLVQSGAEVKKPGSSVKVSCKASGNTFSDYWMHWVKQAPGQGLEWIGMLHPNSGTTSFNEKFKIRTTITIDKSTSTAYMELSSLRSEDTAVYYCASDYSGPFAYWGQGTLVTVSS VL: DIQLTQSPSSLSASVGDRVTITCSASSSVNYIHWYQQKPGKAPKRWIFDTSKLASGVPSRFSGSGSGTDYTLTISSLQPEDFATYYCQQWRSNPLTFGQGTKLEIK
4. h1721-008 (antibody, V domains shown, Only variable regions are tied to this name) VH: EVTLKESGPVLVKPTETLTLTCTVSGFSLSSYGVNWVRQPPGKGLEWLGVIWGDGSTNYHSALISRLTISKDTSKSQVVLTLTNMDPVDTATYYCAKNYFYGSRYGYAMDSWGQGTTVTVSS VL: DIQMTQSPSSLSASVGDRVTITCRASENIYSSLAWYQQKPGKAPKLLVYNAKTLIEGVPSRFSGSGSGTDYTLTISSLQPEDFATYYCQHHYGTPYTFGGGTKVEIK

[25.5, 4.08, 0.781, 2.22]

Where these numbers come from: patent US20200347130A1
